From: patent US9539249B2

- Experiment summary: Tissue distribution of [3H]INT131 after intraperitoneal injection (penetration of the intact BBB)
- Assay type: in vivo, Sprague-Dawley rats
- Condition label: Sprague-Dawley, liver, intraperitoneal; 24 h after ~50 mg/kg ip, rat; read-out: INT131 concentration in Liver
Experimental readout: concentration at 24 h

[[record]]
smiles_input = "O=S(=O)(Nc1cc(Cl)c(Oc2cnc3ccccc3c2)c(Cl)c1)c1ccc(Cl)cc1Cl"
experimental_readout = "concentration at 24 h"
reported_value = "36400 ng/g"


====

- Experiment summary: Tissue distribution of [3H]INT131 after intraperitoneal injection (penetration of the intact BBB)
- Type: in vivo, Sprague-Dawley rats
- Condition label: Sprague-Dawley, brain, intraperitoneal; 6 h after ~50 mg/kg ip, rat; read-out: INT131 concentration in Brain
Experimental readout: concentration at 6 h

[[record]]
compound = "O=S(=O)(Nc1cc(Cl)c(Oc2cnc3ccccc3c2)c(Cl)c1)c1ccc(Cl)cc1Cl [INT131]"
reported_value = "5980 ng/g"


====

- Experiment summary: Tissue distribution of [3H]INT131 after intraperitoneal injection (penetration of the intact BBB)
- Format: in vivo, Sprague-Dawley rats
- Condition label: Sprague-Dawley, CSF, intraperitoneal; 1 h after ~50 mg/kg ip, rat; read-out: INT131 concentration in CSF
Experimental readout: concentration at 1 h (ng/g)

[[record]]
smiles_input = "O=S(=O)(Nc1cc(Cl)c(Oc2cnc3ccccc3c2)c(Cl)c1)c1ccc(Cl)cc1Cl"
experimental_readout = "concentration at 1 h"
reported_value = 292


====

- Experiment summary: Tissue distribution of [3H]INT131 after intraperitoneal injection (penetration of the intact BBB)
- Assay type: in vivo, Sprague-Dawley rats
- Condition label: Sprague-Dawley, brain, intraperitoneal; 24 h after ~50 mg/kg ip, rat; read-out: INT131 concentration in Brain
Experimental readout: concentration at 24 h

[[record]]
compound = "O=S(=O)(Nc1cc(Cl)c(Oc2cnc3ccccc3c2)c(Cl)c1)c1ccc(Cl)cc1Cl [INT131]"
reported_value = "4650 ng/g"


====

- Experiment summary: Tissue distribution of [3H]INT131 after intraperitoneal injection (penetration of the intact BBB)
- Type: in vivo, Sprague-Dawley rats
- Condition label: Sprague-Dawley, rat, neural tissues relative to circulation (blood), intraperitoneal, 50 mg/kg; 24 hours after injection; read-out: level of INT131 in neural tissues relative to that found in the circulation
- Experimental: To test whether INT131 is able to penetrate the intact BBB INT131 was radiolabeled with tritium (“[^3H]INT131”), prior to intraperitoneal injection into adult Sprague-Dawley rats. The purity of the radiolabeled INT131 was determined by high-performance liquid chromatography (HPLC) fractionation prior to injection, and again at the close of the experiment. […]
Experimental readout: Kp at 24 h

[[record]]
molecule = "O=S(=O)(Nc1cc(Cl)c(Oc2cnc3ccccc3c2)c(Cl)c1)c1ccc(Cl)cc1Cl [INT131]"
experimental_readout = "Kp at 24 h"
reported_value = 0.25


====

- Experiment summary: Tissue distribution of [3H]INT131 after intraperitoneal injection (penetration of the intact BBB)
- Type: in vivo, Sprague-Dawley rats
- Condition label: Sprague-Dawley, kidney, intraperitoneal; 1 h after ~50 mg/kg ip, rat; read-out: INT131 concentration in Kidney
- Description: To test whether INT131 is able to penetrate the intact BBB INT131 was radiolabeled with tritium (“[^3H]INT131”), prior to intraperitoneal injection into adult Sprague-Dawley rats. The purity of the radiolabeled INT131 was determined by high-performance liquid chromatography (HPLC) fractionation prior to injection, and again at the close of the experiment. […]
Experimental readout: concentration at 1 h (ng/g)

[[record]]
smiles_input = "O=S(=O)(Nc1cc(Cl)c(Oc2cnc3ccccc3c2)c(Cl)c1)c1ccc(Cl)cc1Cl"
reported_value = 7730


====

- Experiment summary: Tissue distribution of [3H]INT131 after intraperitoneal injection (penetration of the intact BBB)
- Assay type: in vivo, Sprague-Dawley rats
- Condition label: Sprague-Dawley, spinal cord, intraperitoneal; 1 h after ~50 mg/kg ip, rat; read-out: INT131 concentration in Spinal cord
- Description: To test whether INT131 is able to penetrate the intact BBB INT131 was radiolabeled with tritium (“[^3H]INT131”), prior to intraperitoneal injection into adult Sprague-Dawley rats. The purity of the radiolabeled INT131 was determined by high-performance liquid chromatography (HPLC) fractionation prior to injection, and again at the close of the experiment. […]
Experimental readout: concentration at 1 h

[[record]]
compound = "O=S(=O)(Nc1cc(Cl)c(Oc2cnc3ccccc3c2)c(Cl)c1)c1ccc(Cl)cc1Cl [INT131]"
experimental_readout = "concentration at 1 h"
reported_value = "478 ng/g"


====

- Experiment summary: Tissue distribution of [3H]INT131 after intraperitoneal injection (penetration of the intact BBB)
- Format: in vivo, Sprague-Dawley rats
- Condition label: Sprague-Dawley, rat, brain and spinal cord relative to blood, intraperitoneal, 50 mg/kg; 6 hours after injection; read-out: level of INT131 in brain and spinal cord relative to the level found in blood
Experimental readout: Kp at 6 h

[[record]]
compound = "O=S(=O)(Nc1cc(Cl)c(Oc2cnc3ccccc3c2)c(Cl)c1)c1ccc(Cl)cc1Cl [INT131]"
experimental_readout = "Kp at 6 h"
reported_value = "~0.1"


====

- Experiment summary: Tissue distribution of [3H]INT131 after intraperitoneal injection (penetration of the intact BBB)
- Assay type: in vivo, Sprague-Dawley rats
- Condition label: Sprague-Dawley, CSF, intraperitoneal; 6 h after ~50 mg/kg ip, rat; read-out: INT131 concentration in CSF
Experimental readout: concentration at 6 h (ng/g)

[[record]]
compound = "O=S(=O)(Nc1cc(Cl)c(Oc2cnc3ccccc3c2)c(Cl)c1)c1ccc(Cl)cc1Cl [INT131]"
reported_value = 2860


====

- Experiment summary: Tissue distribution of [3H]INT131 after intraperitoneal injection (penetration of the intact BBB)
- Type: in vivo, Sprague-Dawley rats
- Condition label: Sprague-Dawley, small bowel, intraperitoneal; 6 h after ~50 mg/kg ip, rat; read-out: INT131 concentration in Small bowel
Experimental readout: concentration at 6 h (ng/g)

[[record]]
molecule = "O=S(=O)(Nc1cc(Cl)c(Oc2cnc3ccccc3c2)c(Cl)c1)c1ccc(Cl)cc1Cl [INT131]"
reported_value = 223000


====

- Experiment summary: Tissue distribution of [3H]INT131 after intraperitoneal injection (penetration of the intact BBB)
- Assay type: in vivo, Sprague-Dawley rats
- Condition label: Sprague-Dawley, small bowel, intraperitoneal; 24 h after ~50 mg/kg ip, rat; read-out: INT131 concentration in Small bowel
Experimental readout: concentration at 24 h (ng/g)

[[record]]
smiles_input = "O=S(=O)(Nc1cc(Cl)c(Oc2cnc3ccccc3c2)c(Cl)c1)c1ccc(Cl)cc1Cl"
experimental_readout = "concentration at 24 h"
reported_value = 34500


====

- Experiment summary: Tissue distribution of [3H]INT131 after intraperitoneal injection (penetration of the intact BBB)
- Type: in vivo, Sprague-Dawley rats
- Condition label: Sprague-Dawley, spinal cord, intraperitoneal; 24 h after ~50 mg/kg ip, rat; read-out: INT131 concentration in Spinal cord
- Experimental: To test whether INT131 is able to penetrate the intact BBB INT131 was radiolabeled with tritium (“[^3H]INT131”), prior to intraperitoneal injection into adult Sprague-Dawley rats. The purity of the radiolabeled INT131 was determined by high-performance liquid chromatography (HPLC) fractionation prior to injection, and again at the close of the experiment. […]
Experimental readout: concentration at 24 h

[[record]]
compound = "O=S(=O)(Nc1cc(Cl)c(Oc2cnc3ccccc3c2)c(Cl)c1)c1ccc(Cl)cc1Cl [INT131]"
experimental_readout = "concentration at 24 h"
reported_value = "4310 ng/g"


====

- Experiment summary: Tissue distribution of [3H]INT131 after intraperitoneal injection (penetration of the intact BBB)
- Format: in vivo, Sprague-Dawley rats
- Condition label: Sprague-Dawley, rat, brain and spinal cord, intraperitoneal, 50 mg/kg; 1 day after injection; read-out: absolute amount of INT131 in the brain and spinal cord
Experimental readout: concentration at 1 day

[[record]]
compound = "O=S(=O)(Nc1cc(Cl)c(Oc2cnc3ccccc3c2)c(Cl)c1)c1ccc(Cl)cc1Cl [INT131]"
reported_value = "> 4000 ng/g"


====

- Experiment summary: Tissue distribution of [3H]INT131 after intraperitoneal injection (penetration of the intact BBB)
- Type: in vivo, Sprague-Dawley rats
- Condition label: Sprague-Dawley, spinal cord, intraperitoneal; 6 h after ~50 mg/kg ip, rat; read-out: INT131 concentration in Spinal cord
Experimental readout: concentration at 6 h (ng/g)

[[record]]
smiles_input = "O=S(=O)(Nc1cc(Cl)c(Oc2cnc3ccccc3c2)c(Cl)c1)c1ccc(Cl)cc1Cl"
experimental_readout = "concentration at 6 h"
reported_value = 4810


====

- Experiment summary: Tissue distribution of [3H]INT131 after intraperitoneal injection (penetration of the intact BBB)
- Format: in vivo, Sprague-Dawley rats
- Condition label: Sprague-Dawley, kidney, intraperitoneal; 6 h after ~50 mg/kg ip, rat; read-out: INT131 concentration in Kidney
Experimental readout: concentration at 6 h (ng/g)

[[record]]
smiles_input = "O=S(=O)(Nc1cc(Cl)c(Oc2cnc3ccccc3c2)c(Cl)c1)c1ccc(Cl)cc1Cl"
experimental_readout = "concentration at 6 h"
unit_of_measurement = "ng/g"
reported_value = 32900

